ASSAY_COMMENT: Study on oral pharmacokinetics in rats
Assay type: in vivo
REPORTED_CONDITIONS: rat, plasma, male SD rats, 3 mg/kg by gavage, average, read-out: Average residence time MRTINF_obs
MEASUREMENT_KIND: MRT inf (h)
Numeric only. Scale: h

Examples with answers:
CN1C(=O)[C@@H](NC(=O)c2n[nH]c(Cc3ccccc3)n2)COc2ccc(C#Cc3cnn(C)c3)cc21 [ZB-R-53]; 2.41
Cc1c(C#Cc2cnn(C)c2)sc2c1SC[C@H](NC(=O)c1nnc(Cc3ccccc3)[nH]1)C(=O)N2C [ZB-R-39]; 4.07
CN1C(=O)[C@@H](NC(=O)c2n[nH]c(Cc3ccccc3)n2)COc2ccc(C#Cc3ccccn3)cc21 [ZB-R-50]; 2.2
CN1C(=O)[C@@H](NC(=O)c2n[nH]c(Cc3ccccc3)n2)COc2ccc(C#Cc3cccnc3)cc21 [ZB-R-51]; 2.8
CN1C(=O)[C@@H](NC(=O)c2n[nH]c(Cc3ccccc3)n2)COc2ccc(C#CC3CCOCC3)cc21 [ZB-R-54]; 2

Ask: # return recorded MRT inf for input CN1C(=O)[C@@H](NC(=O)c2n[nH]c(Cc3ccccc3)n2)COc2ccc(C#Cc3ccncc3)cc21 [ZB-R-52]
Reply: 1.61

Ask: Give me measured MRT inf, please, for this molecule: CN1C(=O)[C@@H](NC(=O)c2n[nH]c(Cc3ccccc3)n2)COc2ccc(C#CC3CC3)cc21 [ZB-R-55]
Reply: 7.23

----------
Reported log10 of AUC(0-t) values for the following compounds.
ASSAY_COMMENT: Study on oral pharmacokinetics in rats
Type: in vivo
REPORTED_CONDITIONS: rat, plasma, male SD rats, 3 mg/kg by gavage, average
Plainly stated, the numbers are log10 of AUC(0-t) given in ng·h/mL.

Take a look at these entries with their results.
Cc1c(C#Cc2cnn(C)c2)sc2c1SC[C@H](NC(=O)c1nnc(Cc3ccccc3)[nH]1)C(=O)N2C [ZB-R-39]; 3.23
CN1C(=O)[C@@H](NC(=O)c2n[nH]c(Cc3ccccc3)n2)COc2ccc(C#CC3CCOCC3)cc21 [ZB-R-54]; 3.09
CN1C(=O)[C@@H](NC(=O)c2n[nH]c(Cc3ccccc3)n2)COc2ccc(C#Cc3ccncc3)cc21 [ZB-R-52]; 3.19

Ask: Please give the documented log10 of AUC(0-t) of CN1C(=O)[C@@H](NC(=O)c2n[nH]c(Cc3ccccc3)n2)COc2ccc(C#Cc3ccccn3)cc21 [ZB-R-50]
Reply: 3.49

Ask: Fill in reported log10 of AUC(0-t) for this entry: CN1C(=O)[C@@H](NC(=O)c2n[nH]c(Cc3ccccc3)n2)COc2ccc(C#CC3CC3)cc21 [ZB-R-55]
Reply: 4.41

Ask: Read the entry CN1C(=O)[C@@H](NC(=O)c2n[nH]c(Cc3ccccc3)n2)COc2ccc(C#Cc3cccnc3)cc21 [ZB-R-51] and write its reported log10 of AUC(0-t).
Reply: 3.62

Ask: Give a short answer stating reported log10 of AUC(0-t) for CN1C(=O)[C@@H](NC(=O)c2n[nH]c(Cc3ccccc3)n2)COc2ccc(C#Cc3cnn(C)c3)cc21 [ZB-R-53] .
Reply: 3.65

----------
ASSAY_COMMENT: Study on oral pharmacokinetics in rats
Format: in vivo
REPORTED_CONDITIONS: rat, plasma, male SD rats, 3 mg/kg by gavage, average, read-out: Peak plasma concentration Cmax
Recorded measurements of Cmax, one per entry
# number only, unit ng/mL dropped from output

CN1C(=O)[C@@H](NC(=O)c2n[nH]c(Cc3ccccc3)n2)COc2ccc(C#CC3CCOCC3)cc21 [ZB-R-54]; 667

Ask: In one line, give reported Cmax of the entry CN1C(=O)[C@@H](NC(=O)c2n[nH]c(Cc3ccccc3)n2)COc2ccc(C#Cc3cnn(C)c3)cc21 [ZB-R-53] .
Reply: 1760

Ask: # return recorded Cmax for entry CN1C(=O)[C@@H](NC(=O)c2n[nH]c(Cc3ccccc3)n2)COc2ccc(C#CC3CC3)cc21 [ZB-R-55]
Reply: 2900

Ask: Answer with reported Cmax of Cc1c(C#Cc2cnn(C)c2)sc2c1SC[C@H](NC(=O)c1nnc(Cc3ccccc3)[nH]1)C(=O)N2C [ZB-R-39]
Reply: 525

Where these numbers come from: patent US12065447B2
